Each recorded value in this set is attributed to ChEMBL document CHEMBL5058577.

Tested on: U2OS
Assay: Multiplex assay against U2OS
Assay type: toxicity, cell-based
Conditions: human, 24 h, 10 µM, compound concentration 10 uM, replicate 2
Kind request: treat 7% as inclusive, so Population Hoechst High Intensity Objects (%) at 7% or higher is t, anything lower is f.

>  <Structure>
Cc1nc2ccc(Oc3ccc(F)cc3)cc2c(=O)n1C[C@H]1CCCN(C(C)C)C1.Cl

>  <Target Entity>
U2OS

>  <Classification>
f

$$$$
>  <Structure>
CC1(COc2ccc3c(c2)ncn3-c2ccc3cccc(N4CCC(N)CC4)c3n2)COC1

>  <Target Entity>
U2OS

>  <Classification>
t

$$$$
>  <Structure>
O=C(NCCO)c1cccc(-c2cc(Nc3ccc(OC(F)(F)F)cc3)ncn2)c1

>  <Target Entity>
U2OS

>  <Classification>
f

$$$$

Note: attention shifts to another entry.
State whether the measured Population Hoechst High Intensity Objects (%) reaches 7%, counting equality as reaching it, for `Oc1c(CN2CCN(c3ccccn3)CC2)cc(Cl)c2cccnc12`
f

====

Tested on: HEK-293T
Assay: Multiplex assay against HEK293T
Format: toxicity, cell-based
Conditions: human, 12 h, 1 µM, compound concentration 1 uM, replicate 2
Readout Name: Total Cell Count
Reply with the value as a number alone.

Consider the worked cases shown below.
>  <Compound>
Cc1nc2ccc(Oc3ccc(F)cc3)cc2c(=O)n1C[C@H]1CCCN(C(C)C)C1.Cl

>  <Number>
204

$$$$
>  <Compound>
C[C@H](NC(=O)c1c(C(F)F)nn(C)c1Oc1cccc(C(F)(F)F)c1)c1ccc(C(=O)O)cc1 [PALUPIPRANT]

>  <Number>
475

$$$$
>  <Compound>
O=C(NCC(=O)N1CC[C@H](N[C@H]2CC[C@@](O)(c3ccc(-c4ncccn4)cn3)CC2)C1)c1cccc(C(F)(F)F)c1 [PF-4136309]

>  <Number>
389

$$$$
>  <Compound>
CC(C)(C)c1ccc(S(=O)(=O)Nc2ccc(Cl)cc2C(=O)c2cc[n+]([O-])cc2)cc1 [VERCIRNON]

>  <Number>
424

$$$$
>  <Compound>
COc1ccccc1N1CCN(CCCCNC(=O)c2ccc3ccccc3c2)CC1.Cl

>  <Number>
354

$$$$

Supply measured Total Cell Count of `Oc1c(CN2CCN(c3ccccn3)CC2)cc(Cl)c2cccnc12` in your reply.
354

// Input: N#Cc1c(N)nc(SCc2csc(-c3ccc(Cl)cc3)n2)c(C#N)c1-c1ccc(OCCO)cc1 [CAPADENOSON] . Output its Total Cell Count only.
375

====

System: U2OS
Test: Multiplex assay against U2OS
Type: toxicity, cell-based
Conditions: human, 24 h, 1 µM, compound concentration 1 uM, replicate 2
Readout Name: Total Cell Count
The response must contain the number and no unit.

Take a look at these entries with their results.
>  <Molecule>
CCOc1c2c(c(OCC)c3ncccc13)CN(c1ccc(CS(=O)(=O)NC(=O)Cc3ccccc3OC)cc1C)C2=O

>  <Total Cell Count>
125

$$$$
>  <Molecule>
O=C1COc2nccc(-c3ccccc3F)c2CN1Cc1cc(C(F)(F)F)cc(C(F)(F)F)c1

>  <Total Cell Count>
121

$$$$
>  <Molecule>
Cc1ccccc1C(=O)Nc1ccc(C(=O)N2CCCC(N(C)C)c3ccccc32)cc1.Cl (stereo unspecified)

>  <Total Cell Count>
192

$$$$

Provide only the value of recorded Total Cell Count for c1cc(OCCCN2CCCCC2)ccc1CN1CCCCC1 [JNJ-5207852]
119

Please indicate Total Cell Count recorded for `CN(C)c1ccnc2sc3c(=O)n(N4CCCCCC4)cnc3c12`
150

Answer with reported Total Cell Count of N[C@@]1(C(=O)O)CO[C@H]2[C@H](C(=O)O)[C@H]21 [LY-379268]
133

Output Total Cell Count of CCCN1CCC[C@@H]2Cc3n[nH]cc3C[C@H]21.Cl [QUINPIROLE HYDROCHLORIDE]
138

Please supply the value of reported Total Cell Count for the item N#Cc1c(N)nc(SCc2csc(-c3ccc(Cl)cc3)n2)c(C#N)c1-c1ccc(OCCO)cc1 [CAPADENOSON]
176

Please report the measured Total Cell Count for C[C@H]1[C@H]2CC[C@H]3[C@@H]4CC=C5C[C@@H](N(C)C)CC[C@]5(C)[C@H]4CC[C@]23CN1C [CONESSINE]
153

Supply recorded Total Cell Count for `Oc1c(CN2CCN(c3ccccn3)CC2)cc(Cl)c2cccnc12` here.
97

Give recorded Total Cell Count. `CC[C@H]1OC(=O)[C@H](C)[C@@H](O[C@H]2C[C@@](C)(OC)[C@@H](O)[C@H](C)O2)[C@H](C)[C@@H](O[C@@H]2O[C@H](C)C[C@H](N(C)C)[C@H]2O)[C@@]2(C)CC(C)=C(O2)[C@H](C)[C@@H](O)[C@]1(C)O`
115

====

Test system: Fibroblast
Test: Multiplex assay against human fibroblast
Assay type: toxicity, cell-based
Conditions: 24 h, 10 µM, compound concentration 10 uM, replicate 1
Classify: MET when Population Apoptotic (%) is strictly less than 50%; NOT MET when Population Apoptotic (%) is not.

Sample answers from the record:
>  <Molecule>
CN(C)CCCc1cc(C(=O)Nc2ccc(-c3ccncc3)cc2)ccc1O.Cl.Cl

>  <Classification>
MET

$$$$
>  <Molecule>
O=S(=O)(c1ccccc1)c1cnc2c(N3CCNCC3)cccc2c1 [INTEPIRDINE]

>  <Classification>
MET

$$$$
>  <Molecule>
C[C@@H]1C[C@H]2[C@@H]3CCC4=CC(=O)C=C[C@]4(C)[C@@]3(F)[C@@H](O)C[C@]2(C)[C@@]1(O)C(=O)CO [DEXAMETHASONE]

>  <Classification>
MET

$$$$
>  <Molecule>
COc1c(C)cc(NC(=O)c2nn(Cc3ccc(F)cc3)c3c2CN(C(=O)c2ccc[nH]2)C[C@]3(C)C(N)=O)cc1C

>  <Classification>
NOT MET

$$$$
>  <Molecule>
N[C@@]1(C(=O)O)CO[C@H]2[C@H](C(=O)O)[C@H]21 [LY-379268]

>  <Classification>
NOT MET

$$$$

Moving on to another molecule below.
Confirm or reject: Population Apoptotic (%) of CC1(COc2ccc3c(c2)ncn3-c2ccc3cccc(N4CCC(N)CC4)c3n2)COC1 [CRENOLANIB] lies strictly below 50%
MET

====

Tested on: Fibroblast
Test: Multiplex assay against human fibroblast
Format: toxicity, cell-based
Settings: 48 h, 10 µM, compound concentration 10 uM, replicate 2
Readout Name: Population Apoptotic (%)
Note: unit % is implicit; provide only the numeric part.

Use the examples below as a reference point.
>  <Compound>
CC1(COc2ccc3c(c2)ncn3-c2ccc3cccc(N4CCC(N)CC4)c3n2)COC1 [CRENOLANIB]

>  <Population Apoptotic (%)>
37

$$$$
>  <Compound>
C[C@@H]1C[C@H]2[C@@H]3CCC4=CC(=O)C=C[C@]4(C)[C@@]3(F)[C@@H](O)C[C@]2(C)[C@@]1(O)C(=O)CO [DEXAMETHASONE]

>  <Population Apoptotic (%)>
37

$$$$
>  <Compound>
O=C(O)Cc1ccccc1Nc1c(Cl)cccc1Cl [DICLOFENAC]

>  <Population Apoptotic (%)>
30

$$$$
>  <Compound>
CSc1ccccc1N1CCN(CCCCCC(=O)NC2CCCc3ccccc32)CC1.Cl (stereo unspecified)

>  <Population Apoptotic (%)>
68

$$$$
>  <Compound>
C[C@H](NC(=O)c1c(C(F)F)nn(C)c1Oc1cccc(C(F)(F)F)c1)c1ccc(C(=O)O)cc1 [PALUPIPRANT]

>  <Population Apoptotic (%)>
60

$$$$
>  <Compound>
CN1CCN(c2nc3cc(C(F)(F)F)ccc3n3cccc23)CC1.O=C(O)/C=C\C(=O)O.O=C(O)/C=C\C(=O)O

>  <Population Apoptotic (%)>
63

$$$$
>  <Compound>
COc1ccc2c(c1)C(C(=O)N(Cc1ccc(N(C)C)cc1)c1ccc(C(C)C)cc1)CCC2.Cl (stereo unspecified)

>  <Population Apoptotic (%)>
75

$$$$
>  <Compound>
O=C(NCC(=O)N1CC[C@H](N[C@H]2CC[C@@](O)(c3ccc(-c4ncccn4)cn3)CC2)C1)c1cccc(C(F)(F)F)c1 [PF-4136309]

>  <Population Apoptotic (%)>
63

$$$$
>  <Compound>
Cc1ccc(C(C)(O)c2nc3ccccc3s2)c(C)c1 (stereo unspecified)

>  <Population Apoptotic (%)>
43

$$$$
>  <Compound>
O=C1COc2nccc(-c3ccccc3F)c2CN1Cc1cc(C(F)(F)F)cc(C(F)(F)F)c1

>  <Population Apoptotic (%)>
60

$$$$

Consider now this further compound.
Note Population Apoptotic (%) for the compound shown: Cl.Clc1ccc2nsnc2c1NC1=NCCN1 [TIZANIDINE HYDROCHLORIDE]
63

====

System: Fibroblast
Assay: Multiplex assay against human fibroblast
Format: toxicity, cell-based
Conditions: 24 h, 10 µM, compound concentration 10 uM, replicate 2
# reported Population Fragmented Nuclei (%); entries follow
Write down the numeric answer in % and omit the unit.

Some molecules with recorded Population Fragmented Nuclei (%):
>  <Molecule>
C[C@H](NC(=O)c1c(C(F)F)nn(C)c1Oc1cccc(C(F)(F)F)c1)c1ccc(C(=O)O)cc1

>  <Population Fragmented Nuclei (%)>
40

$$$$
>  <Molecule>
O=C(O)Cc1ccccc1Nc1c(Cl)cccc1Cl

>  <Population Fragmented Nuclei (%)>
31

$$$$
>  <Molecule>
N#Cc1c(N)nc(SCc2csc(-c3ccc(Cl)cc3)n2)c(C#N)c1-c1ccc(OCCO)cc1

>  <Population Fragmented Nuclei (%)>
43

$$$$

Here is the next item to consider.
Input O=S(=O)(c1ccccc1)c1cnc2c(N3CCNCC3)cccc2c1 [INTEPIRDINE] , output reported Population Fragmented Nuclei (%).
39
